List of IC50 tested on Acyl-protein thioesterase 1 (Homo sapiens).
Sequence (O75608 whole entry): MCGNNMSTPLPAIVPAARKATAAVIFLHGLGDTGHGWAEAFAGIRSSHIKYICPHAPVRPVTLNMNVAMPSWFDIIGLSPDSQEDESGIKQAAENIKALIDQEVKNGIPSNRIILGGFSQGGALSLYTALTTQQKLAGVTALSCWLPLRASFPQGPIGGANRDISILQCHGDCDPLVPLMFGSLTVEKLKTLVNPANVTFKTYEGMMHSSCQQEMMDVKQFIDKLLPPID

Below, 5 compounds whose answers are already recorded.
{"query_smiles": "OB(O)c1ccc(Cl)cc1", "recorded_endpoint": "IC50", "result": "4.6 µM"}
{"query_smiles": "OB(O)c1ccc(-c2ccccc2)cc1", "recorded_endpoint": "IC50", "result": "16.9 µM"}
{"query_smiles": "CC(=O)c1cccc(B(O)O)c1", "recorded_endpoint": "IC50", "result": "3.9 µM"}
{"query_smiles": "OB(O)c1ccccc1", "recorded_endpoint": "IC50", "result": "14.7 µM"}
{"query_smiles": "OB(O)c1cccc(Cl)c1", "recorded_endpoint": "IC50", "result": "1.4 µM"}

Which IC50 is reported with Acyl-protein thioesterase 1 (Homo sapiens) for this entry: COC(=O)c1cc(B(O)O)cc([N+](=O)[O-])c1 ?
3.7 µM

----------
# target_entity: Acyl-protein thioesterase 2 (Homo sapiens, UniProt O95372)
# Sequence (O95372 whole entry): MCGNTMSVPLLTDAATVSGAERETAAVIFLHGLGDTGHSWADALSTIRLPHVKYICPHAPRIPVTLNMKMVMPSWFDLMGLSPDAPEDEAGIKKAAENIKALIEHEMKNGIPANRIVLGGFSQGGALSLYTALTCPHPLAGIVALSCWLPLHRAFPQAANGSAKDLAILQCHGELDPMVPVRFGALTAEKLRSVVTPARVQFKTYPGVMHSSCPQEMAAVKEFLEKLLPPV
# experiment_description: Enzymatic Protein Activity Assay
recorded_endpoint: IC50 (µM)
One number for each entry, in µM.

# annotated cases, reported IC50 shown
{"query_smiles": "OB(O)c1cc2ccccc2s1", "unit_abbreviation": "µM", "result_number": 0.529}
{"query_smiles": "OB(O)c1ccc(Cl)cc1", "unit_abbreviation": "µM", "result_number": 4.18}
{"query_smiles": "OB(O)c1ccc(-c2ccccc2)cc1", "unit_abbreviation": "µM", "result_number": 3.55}

Read the next record carefully.
Name the recorded IC50 for OB(c1ccccc1)c1cccc(COCc2cccc(B(O)c3ccccc3)c2)c1 .
41.5
